Measured values drawn from patent US20140288000A1 for this set.

Molecular target: human plasmin (human, UniProt P00747 97-810, limits assumed)
Sequence (P00747 97-810 limits assumed): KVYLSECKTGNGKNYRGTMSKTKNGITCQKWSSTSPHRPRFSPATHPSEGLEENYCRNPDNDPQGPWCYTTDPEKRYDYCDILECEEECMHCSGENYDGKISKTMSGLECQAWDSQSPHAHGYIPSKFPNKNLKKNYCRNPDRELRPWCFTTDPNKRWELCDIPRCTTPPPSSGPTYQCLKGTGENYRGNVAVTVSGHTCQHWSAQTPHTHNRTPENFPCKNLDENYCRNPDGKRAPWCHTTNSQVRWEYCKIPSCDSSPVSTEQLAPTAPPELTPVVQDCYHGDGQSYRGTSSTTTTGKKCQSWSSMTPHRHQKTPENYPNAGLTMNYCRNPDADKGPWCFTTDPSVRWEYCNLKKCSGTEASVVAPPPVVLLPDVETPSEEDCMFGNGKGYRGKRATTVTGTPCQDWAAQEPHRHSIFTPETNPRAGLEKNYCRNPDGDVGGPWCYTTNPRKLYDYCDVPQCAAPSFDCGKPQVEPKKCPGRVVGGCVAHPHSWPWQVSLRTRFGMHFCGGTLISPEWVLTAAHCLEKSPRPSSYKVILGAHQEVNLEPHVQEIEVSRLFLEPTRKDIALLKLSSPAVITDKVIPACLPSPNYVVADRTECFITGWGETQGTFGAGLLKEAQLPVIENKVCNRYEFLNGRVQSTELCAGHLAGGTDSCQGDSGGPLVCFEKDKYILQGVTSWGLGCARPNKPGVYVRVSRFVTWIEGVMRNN
Assay: cell-based or functional assay
Consider the following binders and their measured IC50 (nM), inhibition of plasmin activity on chromogenic substrate S2251 readings.
measured property: IC50 (nM), inhibition of plasmin activity on chromogenic substrate S2251

{"columns": ["binder", "experimental result"],
 "data": [
  ["plasmin-inhibiting polypeptide comprising the amino acid sequence set forth in SEQ ID NO:4 (designed binder) NAEICLLPLDTGPCRARLLRYYYDRYTQSCRQFLYGGCEGNANNFYTWEACDDACWRIEKVPK", 0.8],
  ["plasmin-inhibiting polypeptide comprising the amino acid sequence set forth in SEQ ID NO:3 (designed binder) NAEICLLPLDTGPCRARLLRYYYDRYTQSCRQFLYGGCEGNANNFYTWEACDDACWRIEK", 1.8],
  ["plasmin-inhibiting polypeptide comprising the amino acid sequence set forth in SEQ ID NO:5 (designed binder) NAEICLLPLDYGPCRARLLRYYYDRYTQSCRQFLYGGCEGNANNFYTWEACDDACWRIEK", 3.4],
  ["plasmin-inhibiting polypeptide comprising the amino acid sequence set forth in SEQ ID NO:6 (designed binder) NAEICLLPLDYGPCRARLLRYYYDRYTQSCRQFLYGGCEGNANNFYTWEACDDACWRIEKVPK", 1.8]
]}
